System: HepG2
Assay Info: GSK_TCMDC: Percent inhibition of human HepG2 cell line. Test compounds present at 10uM.
Assay type: functional

Compound	Tested On	Unit Symbol	Inhibition
Cc1cc(NCCC(=O)Nc2ccccc2)nc(NCCOc2ccccc2)n1.O=C(O)C(F)(F)F	HepG2	%	5
O=C(c1cccc(-c2ccc(-c3nc4cc(F)ccc4[nH]3)s2)c1)N1CCCCC1CN1CCC(O)C1 (centres undefined)	HepG2	%	23
C=CCn1c(SCc2c(C)noc2C)nc2scc(-c3cccs3)c2c1=O	HepG2	%	13
CN(c1ccc(F)cc1)S(=O)(=O)c1ccc(Cl)c(C(=O)Nc2cccc(C#N)c2)c1	HepG2	%	5
O=C(O)C(F)(F)F.O=C1OC2(CN1CC1CCN(Cc3ccc(O)cc3Cl)C1)c1ccccc1-c1ccccc12 (centres undefined)	HepG2	%	16
CCCCCCn1c(Sc2ccc(C#N)c([N+](=O)[O-])c2)nnc1-c1ccccc1	HepG2	%	23
O=[N+]([O-])c1cccc(C(Nc2ccccn2)c2ccc3cccnc3c2O)c1 (centres undefined)	HepG2	%	53
Cc1[nH]c(C)c(-c2ccc(-c3cccc(Cl)c3)nc2)c(=O)c1Br	HepG2	%	10
CC(=O)Nc1ccc(CN2CCC(NC(=O)c3ccc(-c4cccc(Cl)c4)s3)CC2)cc1.O=C(O)C(F)(F)F	HepG2	%	34

Data origin, for the record: ChEMBL document CHEMBL1157539
